assay_target: Trace amine-associated receptor 1 (Homo sapiens) (UniProt Q96RJ0)
Sequence (Q96RJ0 whole entry, looked up): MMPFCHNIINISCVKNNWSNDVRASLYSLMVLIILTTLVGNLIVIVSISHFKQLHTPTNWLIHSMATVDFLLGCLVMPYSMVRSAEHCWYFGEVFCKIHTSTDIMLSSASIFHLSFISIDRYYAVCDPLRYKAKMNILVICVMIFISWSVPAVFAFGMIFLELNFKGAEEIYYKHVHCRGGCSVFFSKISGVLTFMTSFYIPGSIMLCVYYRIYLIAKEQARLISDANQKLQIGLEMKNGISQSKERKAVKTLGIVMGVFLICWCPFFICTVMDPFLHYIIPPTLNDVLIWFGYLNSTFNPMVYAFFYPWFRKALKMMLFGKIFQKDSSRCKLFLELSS
assay_method_text: blockers of beta-PEA-driven TAAR1 calcium signal – Fluo-8 calcium fluorescence, CHO RD-HGA16 cells, primary screen (AID 624466);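 also: 0% = DMSO plus EC80 beta-PEA response and 100% = DMSO alone without agonist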
condition_notes: CHO RD-HGA16 TAAR1, Fluo-8 calcium fluorescence, antagonist; at 3 µM; active compounds read high
Out of some 360,000 compounds screened, about 5,400 (1.5%) were called active. The sample holds actives, similar compounds and a random draw of the others, so the mix is not that of the screen.
endpoint_label: inhibition (%)
Supply the numeric figure in %, leaving out any unit text.

For record "O=C(COC(=O)c1ccc(S(=O)(=O)N2CCc3ccccc3C2)cc1)NC(=O)NCc1ccco1" the listed inhibition is 0.28

So, "C/C(=N\Nc1ccccc1)c1cccs1" ? Its inhibition was 8.01

Sure, the documented inhibition for "CC(C)N(Cc1ccccc1)C(=O)COC(=O)c1cnccn1" is -3.08

Data point: "NCCCNC(=S)NCCCN(Cc1ccc(Cl)cc1)c1ccc(Br)cn1" ; inhibition = 0.12

---

assay_target: Trace amine-associated receptor 1 (Homo sapiens)
assay_method_text: blockers of beta-PEA-driven TAAR1 calcium signal – Fluo-8 calcium fluorescence, CHO RD-HGA16 cells, primary screen (AID 624466);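 also: 0% = DMSO plus EC80 beta-PEA response and 100% = DMSO alone without agonist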
condition_notes: CHO RD-HGA16 TAAR1, Fluo-8 calcium fluorescence, antagonist; at 3 µM
Hit rate of the full screen: of about 360,000 compounds, about 5,400 (1.5%) were called active.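 Rule for the calls: active = inhibition above a per-plate cutoff, the mean inhibition of test compounds on that plate plus 3 SD (cut at about 49% in these data); inactive = the rest.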 For the sample, actives were picked, then their nearest neighbours and some compounds at random.
Could you please pick one outcome from this set? 1.0 for active, 0.0 for inactive

Assay result, entry "COc1ccc(CN(C)C(=O)Cc2ccsc2)c(OC)c1OC" — outcome? 0.0

Would you mind telling me which call this test gave "Cc1cc(OCCOc2cccc3cccnc23)c(C)cc1Cl" ? 0.0

Dear colleague, could you share the recorded outcome for "COc1ccc(CN(C)C(=O)c2cc(-c3ccc(C)cc3C)nc3ccccc23)c(OC)c1OC" when you have a moment? 1.0

Hey, what did the test say about "C=CCN1C(=O)C2(OCCCO2)c2cccc(Cl)c21" ? 0.0

Kindly provide the recorded test outcome for the following compound: "NC(=O)c1oc2ccccc2c1NC(=O)CS(=O)(=O)c1ccccc1" 0.0

// outcome(item) with item = "CC(C)OCCCNc1ncnc2c1[nH]c1ccc(F)cc12" 1.0

Kindly provide the recorded test outcome for the following compound: "Cc1nc(NC(=O)C(C)(C)C)sc1[N+](=O)[O-]" 0.0

Given "COc1ccc(CC(=O)Nc2c(C(N)=O)oc3ccccc23)cc1" , state the outcome it received in this test. 1.0

Hi, sorry to bother you, what did the test record for "Cn1c(SCC(=O)N2CCCc3ccccc32)nc2ccccc2c1=O" ? 1.0

I would be grateful if you could indicate the recorded call for Oc1ccccc1C=NC1CCCCC1N=Cc1ccccc1O (stereo unspecified) . 0.0

Query: recorded result category for Cc1ccc(CNC(=O)c2cc(-c3ccccc3C)n(CC3CC(c4cccc([N+](=O)[O-])c4)=NO3)n2)cc1 (stereo unspecified) in this test 0.0

Identify the outcome logged in this assay for the compound shown: "Clc1ccc2nc(-c3ccccc3)nc(C(Cl)Cl)c2c1" 0.0

Just curious, what result did "Cc1cccc(NC(=O)CN2CCN(CC(=O)NCC3(N4CCCCC4)CCCCC3)CC2)c1C" get here? 0.0

Answer briefly: the call reported for "C=CCn1c(=O)c2ccccc2n2c(SCC(=O)N3CCCc4ccccc43)nnc12" in this assay. 0.0

Check the results log: what was the call for CCCNC(=O)C1(C)CCN(Cc2csc(-c3ccc(Cl)cc3)n2)C1 (stereo unspecified) ? 0.0

// param item: "CC(=O)Nc1cccc(-c2cc(NC=O)c3ncc(-c4ccc(F)c(Cl)c4)n3c2)c1" ; yields the recorded call 0.0

Outcome logged for "COc1ccc(C2=NS(=O)(=O)N(C)C(C(=O)N(C)Cc3ccccc3)=C2)cc1" in this assay: 0.0

Outcome logged for "COc1ccc(CNC(=O)COc2cccnc2[N+](=O)[O-])cc1" in this assay: 0.0

Please let me know the test result on file for "CC(C)C(=O)Nc1ccc2c3c(cccc13)CC2" . 0.0

Status in this test for "COC(=O)[C@H](CC(C)C)NS(=O)(=O)c1c(F)cccc1F" ? 0.0

Give the logged outcome of this assay for the following compound: "Cc1ccc2nc(COc3ccc(N(C)S(=O)(=O)c4ccccc4)cc3)cc(=O)n2c1" 0.0

Outcome logged for "CCOc1cccc(OCCCOc2cccc3cccnc23)c1" in this assay: 0.0

Answer briefly: the call reported for "O=C1N[C@@H](c2ccccc2)COC(=O)[C@H](Cc2ccc(F)cc2)C/C=C\C[C@@H]1CC(=O)N(CCO)Cc1ccccc1" in this assay. 0.0

Please let me know the test result on file for "O=S(=O)(NCCc1ccccn1)c1cc(Cl)cc(Cl)c1O" . 0.0

Could you please tell me the result logged for CCc1cccc2c3c([nH]c12)C(CC)(CC(=O)O)OCC3 (stereo unspecified) in this assay? 0.0

Assay outcome for "COc1ccc(Cl)cc1NC(=O)CN(C)C(=O)c1ccc2n[nH]nc2c1" : what was it? 0.0

Outcome logged for "COc1ccc(S(=O)(=O)N2CCCCCC2)cc1C(=O)N(C)Cc1cccc(OC)c1OC" in this assay: 0.0

How was COc1ccc(CNC(=O)C2(CC3CC(c4ccccc4)=NO3)CCN(C(=O)c3cccc(O)c3)CC2)cc1 (stereo unspecified) classified in this test? 0.0

# lookup: test call for COC(=O)C(C)N(C#N)c1nc(C)nc(C)n1 (stereo unspecified) 0.0

Give the logged outcome of this assay for the following compound: COc1ccc(C2=NOC(Cn3nc(C(=O)NCc4ccc5c(c4)OCO5)cc3-c3ccccc3)C2)cc1 (stereo unspecified) 1.0

GET /call?item= CC(C)(C)C1CCC(=O)N2CCC[C@]2(c2ccccc2)C1 (stereo partly specified) returns the recorded outcome of this test. 0.0

Give the logged outcome of this assay for the following compound: "O=c1onc(-c2c(F)cccc2F)n1-c1ccccc1Cl" 0.0

Write down the call the test reported for this compound. Item: "CCCOc1ccc(F)cc1-c1cc(C(=O)NCc2ccc(F)cc2)[nH]n1" 1.0

Lab log entry: "CSc1nc(-c2ccccc2)nc(C(Cl)Cl)n1" — outcome as called in the assay? 1.0

What outcome does the record of this test show for COC(=O)C1=C(C)NC(=S)NC1c1ccc(OC)cc1 (stereo unspecified) ? 0.0

Hello, I am checking results. What call was entered for "O=C(CC[C@H]1O[C@@H](n2ccc(=O)[nH]c2=O)[C@H](O)[C@@H]1O)N[C@H](Cc1ccccc1)C(=O)NCCCN1CCCC1=O" ? 0.0
